Tested on: GPR113 KO mice
Test: brief-access licking paradigms in WT and GPR113 KO mice
Format: in vivo
Details: GPR113 KO versus WT
Observable: licking response of GPR113 KO mice compared with WT

Examples from the recorded data:
{"Test Smiles": "[Cl-].[Na+]", "Result": "responded similarly"}
{"Test Smiles": "O=C(O)CC(O)(CC(=O)O)C(=O)O", "Result": "responded similarly"}
{"Test Smiles": "OC[C@H]1O[C@@](CO)(O[C@H]2O[C@H](CO)[C@@H](O)[C@H](O)[C@H]2O)[C@@H](O)[C@@H]1O", "Result": "responded similarly"}
{"Test Smiles": "C=C[C@H]1C[N@@]2CC[C@H]1C[C@H]2[C@H](O)c1ccnc2ccc(OC)cc12", "Result": "responded similarly"}

Please turn your attention to the following entry.
Query: # get_value(readout='licking response of GPR113 KO mice compared with WT', item= "[Cl-].[K+]" )
Result: responded similarly
